Cited source: PubChem BioAssay (NCI)

System: NCI-H322M lung
Assay: NCI-60 one-dose screen, 48 h
Settings: 10 µM unless noted
Protocol: Growth inhibition of the NCI-H322M human Non-Small Cell Lung tumor cell line is measured as a screen for anti-cancer activity. Cells are grown in 96 well plates and exposed to the test compound for 48 hours. Compounds are tested at a single concentration, which is 10^-5 M for most compounds. The reported endpoint is percent growth (GI% or GIPRCNT), where numbers from 0 - 100% represent growth inhibition, and numbers from -100% - 0 represent cell death. […]
The panel holds about 83,000 compounds, 20% with a hit somewhere; the sample as a whole holds those more often. Calls of active or inactive are those of the source. The calls were made as follows: active = growth percent below 10; inactive = the rest.
Outcomes: class 1 = active, class 0 = inactive

In [3]: df
Out[3]:
                                smiles_data  class_name
0  COc1ccc(S(=O)(=O)c2ccc(C(N)=O)cc2)cc1NC(=O)c1[nH]c(C)c2c1CCCCC2=O     class 0
1             Cc1cc(=O)[nH]n1-c1cc(Cl)ccc1N     class 0
2   COc1cc(C(=O)N(C(C)C)C2CCCCC2)cc(OC)c1OC     class 0
3  Cc1ccccc1-n1nnc(C(=O)Nc2nc(-c3ccccc3)c(-c3ccccc3)s2)c1C     class 0
4  COc1cccc2c(=O)c3c(sc12)c(NCCN(C)C)nc1ccccc13     class 0
5  COc1cc2cc(Oc3ccc(NC(=O)Nc4ccc(Cl)c(C(F)(F)F)c4)cc3)c(C)nc2cc1OCCN1CCCCC1     class 1
6  O=C1c2c(c3c4cc(Br)ccc4[nH]c3c3ccc4ccccc4c23)C(=O)N1O     class 0
7     O=C1c2ccccc2-c2nnc(-c3ccc(Br)cc3)cc21     class 0
8          CCN(CC)c1ccc2c(c1)OS(=O)(=O)N=C2     class 0
9  Cc1ccc(S(=O)(=O)c2ccc3[nH]c(=O)[nH]c(=O)c3c2)cc1     class 0

###

system: CCRF-CEM leukemia; experiment: NCI-60 one-dose screen, 48 h; conditions: 10 µM unless noted
Compounds without any hit were thinned out: in the full panel of roughly 83,000, 20% have a hit. Activity calls are given as the source filed them. Rule for the calls: active = growth percent below 10; inactive = the rest.
Outcomes: YES (active), NO (inactive)

                                smiles_data  class_name
0                   Cc1cc(C)c(S(=O)O)c(C)c1          NO
1  COC(=O)[C@H]1CCCN1C(=O)[C@H]1CCCN1C(=O)[C@@H](Cc1c[nH]c2ccccc12)NC(=S)Nc1cc(C(F)(F)F)cc(C(F)(F)F)c1          NO
2            CCCCCCCCCCCCCCCC[N+]1(C)CCOCC1         YES
3  Cc1ccc(N(CSc2ccc(Cl)cc2)CSc2ccc(Cl)cc2)cc1         YES
4     COc1ccc(OC2=CC(=O)c3ccc(C)nc3C2=O)cc1          NO

###

test system: HT29 colon; assay: NCI-60 one-dose screen, 48 h (100 = growth as untreated, 0 = no growth, -100 = all killed); conditions: 10 µM unless noted
The panel holds about 83,000 compounds, 20% with a hit somewhere; the sample as a whole holds those more often.
Measured growth, listed per entry for reference.
Assay readout: growth (%)

>>> print(df.to_string())
                                 smiles_data  units_label  measured
 0            COCCOC1=C(Cl)C(=O)c2ccccc2C1=O            %        99
 1                    FCOC(C(F)(F)F)C(F)(F)F            %       107
 2  Cc1ccccc1-c1cc(-c2ccc(Br)s2)[nH]c(=O)c1C#N            %       112
 3  O=C1c2cc(S(=O)(=O)O)ccc2C(=O)c2c1cccc2[N+](=O)[O-]            %       104
 4  COc1c(Cl)ccc2c(-c3nc4cc(Cl)c(F)cc4s3)cc(=O)oc12            %      5.31
 5    COc1cc2oc(-c3ccc(O)cc3)cc(=O)c2c(O)c1I            %       107
 6  COC(=O)[C@H]1CCCN1C(=O)[C@H]1CCCN1C(=O)[C@@H](Cc1c[nH]c2ccccc12)NC(=S)Nc1cc(C(F)(F)F)cc(C(F)(F)F)c1            %        39
 7              CCCCc1ccc(NC(=O)C(F)(F)F)cc1            %      99.8
 8  CN1CCc2c(Sc3ccc(C(=O)NO)cc3)c3ccccc3n2C1            %      48.9
 9         NC(=O)c1cc(I)ccc1NC(=O)COc1ccccc1            %      7.08
10  COc1cc2nc(SCc3cc(OC)c(OC)c(OC)c3)n(-c3ccccc3OC)c(=O)c2cc1OC            %      66.6
